growth inhibition by drug alone reference
system: U-2932; test: growth inhibition by drug alone (1 - RLU/untreated control) (fraction); higher = stronger inhibition; conditions: 1000 nM; time (day): 5; 177Lu-lilotomab satetraxetan 0 ug/ml
Give the figure only, with no unit attached.

Item: CCc1ccc(CCOc2ccc(CC3SC(=O)NC3=O)cc2)nc1 (stereo not given) | System: U-2932 | growth inhibition by drug alone: -0.0516

Item: `CC(C)c1ccc(Cn2ccc3c4c(N)nc(NC5CC5)nc4ccc32)cc1` | System: U-2932 | growth inhibition by drug alone: 0.982

Item: `CN(c1ncccc1CNc1nc(Nc2ccc3c(c2)CC(=O)N3)ncc1C(F)(F)F)S(C)(=O)=O` | System: U-2932 | growth inhibition by drug alone: 0.571

Item: `Cc1ccnc(NS(=O)(=O)c2ccc(NC(=O)Nc3ccc(S(=O)(=O)Nc4nccc(C)n4)cc3)cc2)n1` | System: U-2932 | growth inhibition by drug alone: -0.0667

Item: `CN(C)C/C=C/C(=O)Nc1cc2c(Nc3ccc(F)c(Cl)c3)ncnc2cc1O[C@H]1CCOC1` | System: U-2932 | growth inhibition by drug alone: 0.0569

* * *

test system: U-2932; assay: growth inhibition by drug alone (1 - RLU/untreated control) (fraction); higher = stronger inhibition; details: 10 nM; time (day): 3; 177Lu-lilotomab satetraxetan 0 ug/ml
Counter-ions that a name gives are not always drawn.
growth inhibition by drug alone reference
Give the figure only, with no unit attached.

So for C[N+](C)([O-])CCNc1ccc(NCC[N+](C)(C)[O-])c2c1C(=O)c1c(O)ccc(O)c1C2=O [Banoxantrone dihydrochloride] , the logged growth inhibition by drug alone turned out to be -0.0281

So for `C#CCN(C)CC1=Cc2ccccc2Oc2ccccc21` , the logged growth inhibition by drug alone turned out to be 0.0712

So for `C[C@@H](Oc1cc(-c2cnn(C3CCNCC3)c2)cnc1N)c1c(Cl)ccc(F)c1Cl` , the logged growth inhibition by drug alone turned out to be 0.0921

So for `FC(F)c1nc2ccccc2n1-c1nc(N2CCOCC2)nc(N2CCOCC2)n1` , the logged growth inhibition by drug alone turned out to be 0.143

So for `Cc1ccc([N+](=O)[O-])cc1S(=O)(=O)N(C)/N=C/c1cnc2ccc(Br)cn12` , the logged growth inhibition by drug alone turned out to be 0.343

---
So for `CCOC(=O)[C@@H](C)Oc1cccc2c(=O)n(CC(=O)Nc3ccc4c(c3)OCCO4)ccc12` , the logged growth inhibition by drug alone turned out to be -0.0226

So for COC(=O)C1=C(C)NC(C)=C(C(=O)OCCCN2CCC(c3ccccc3)(c3ccccc3)CC2)[C@H]1c1cccc([N+](=O)[O-])c1 [S-(+)-Niguldipine hydrochloride] , the logged growth inhibition by drug alone turned out to be 0.0443

So for CNC(=O)[C@@H](NC(=O)[C@H](CC(C)C)[C@H](O)C(=O)NO)C(C)(C)C [Marimastat] , the logged growth inhibition by drug alone turned out to be -0.0984

* * *

test system: U-2932; experiment: growth inhibition by drug plus 177Lu-lilotomab satetraxetan (1 - RLU/untreated control) (fraction); higher = stronger inhibition; conditions: 10 nM; time (day): 6; 177Lu-lilotomab satetraxetan 1 ug/ml
EXPERIMENTAL_ENDPOINT: growth inhibition by drug plus 177Lu-lilotomab satetraxetan
Give the figure only, with no unit attached.

See these solved cases before continuing.
Item: `COc1cc2c(NC3CCN(C)CC3)nc(N3CCCN(C)CC3)nc2cc1OCCCN(C)C` | System: U-2932 | growth inhibition by drug plus 177Lu-lilotomab satetraxetan: 0.00172

Item: `COCC[n+]1c2c(n(Cc3cnccn3)c1C)C(=O)c1ccccc1C2=O` | System: U-2932 | growth inhibition by drug plus 177Lu-lilotomab satetraxetan: 0.977

Item: COC(=O)Nc1nc2cc(C(=O)c3cccs3)ccc2[nH]1 [Nocodazole] | System: U-2932 | growth inhibition by drug plus 177Lu-lilotomab satetraxetan: 0.13

Item: `COc1cc2ncnc(Nc3ccc(F)c(Cl)c3)c2cc1NC(=O)/C=C/CN1CCCCC1` | System: U-2932 | growth inhibition by drug plus 177Lu-lilotomab satetraxetan: 0.0574

Then there is this molecule:
Item: Nc1cccc2c1C(=O)N(C1CCC(=O)NC1=O)C2=O (stereo not given) [Pomalidomide] | System: U-2932 | growth inhibition by drug plus 177Lu-lilotomab satetraxetan: 0.147

* * *

tested on: RIVA; assay: growth inhibition by drug alone (1 - RLU/untreated control) (fraction); higher = stronger inhibition; conditions: 100 nM; time (day): 4; 177Lu-lilotomab satetraxetan 0 ug/ml
Structures can show the parent of a compound that is named as a salt.
EXPERIMENTAL_ENDPOINT: growth inhibition by drug alone

Item: COc1cccc2c1C(=O)c1c(O)c3c(c(O)c1C2=O)C[C@@](O)(C(C)=O)C[C@@H]3O[C@H]1C[C@H](N)[C@H](O)[C@H](C)O1 [Daunorubicin HCl (Daunomycin HCl)] | System: RIVA | growth inhibition by drug alone: 0.743

Item: O=C(c1ccc(OCCN2CCCCC2)cc1)c1c(-c2ccc(O)cc2)sc2cc(O)ccc12 [Evista (Raloxifene Hydrochloride)] | System: RIVA | growth inhibition by drug alone: -0.0819

Item: `Cn1c(=O)c(F)c(Nc2ccc(I)cc2F)c2c(=O)n(C[C@@H](O)CO)cnc21` | System: RIVA | growth inhibition by drug alone: -0.077

Item: `c1ccc(-c2nn3c(c2-c2ccnc4cc(OCCN5CCOCC5)ccc24)CCC3)nc1` | System: RIVA | growth inhibition by drug alone: -0.252

Item: COc1cccc2c1C(=O)c1c(O)c3c(c(O)c1C2=O)C[C@@](O)(C(=O)CO)C[C@@H]3O[C@H]1C[C@H](N)[C@@H](O)[C@H](C)O1 [Epirubicin Hydrochloride] | System: RIVA | growth inhibition by drug alone: 0.719

---
Item: `O=C1c2ccccc2-c2nc3nonc3nc21` | System: RIVA | growth inhibition by drug alone: -0.488

Item: `CC(C)n1nc(-c2ccc3oc(N)nc3c2)c2c(N)ncnc21` | System: RIVA | growth inhibition by drug alone: 0.708

Item: `CCC1=C[C@@H]2CN(C1)Cc1c([nH]c3ccccc13)[C@@](C(=O)OC)(c1cc3c(cc1OC)N(C)[C@H]1[C@@](O)(C(=O)OC)[C@H](OC(C)=O)[C@]4(CC)C=CCN5CC[C@]31[C@@H]54)C2` | System: RIVA | growth inhibition by drug alone: 0.964

Item: `CC(C)(C#N)c1cc(Cn2cncn2)cc(C(C)(C)C#N)c1` | System: RIVA | growth inhibition by drug alone: -0.0262

Item: `CCc1cncnc1N1CCN(Cc2nc3ccc(C(F)(F)F)cc3[nH]2)CC1` | System: RIVA | growth inhibition by drug alone: -0.0865

Item: `Cc1csc(-c2nnc(Nc3ccc(Oc4ncccc4-c4ccnc(N)n4)cc3)c3ccccc23)c1` | System: RIVA | growth inhibition by drug alone: -0.208

Item: Nc1cccc2c1CN(C1CCC(=O)NC1=O)C2=O (stereo unspecified) [Lenalidomide] | System: RIVA | growth inhibition by drug alone: -0.141

* * *

test system: U-2932; test: growth inhibition by drug alone (1 - RLU/untreated control) (fraction); higher = stronger inhibition; conditions: 1000 nM; time (day): 3; 177Lu-lilotomab satetraxetan 0 ug/ml
Where a name gives a salt, the structure may show the parent alone.
Would you mind sorting the entries by growth inhibition by drug alone according to these classes? lo (below 0.09), mid (0.09 to below 0.3), hi (0.3 or more)

// known answers, use as guide
Record `CCOC(=O)[C@@H](C)Oc1cccc2c(=O)n(CC(=O)Nc3ccc4c(c3)OCCO4)ccc12` — which class?
lo

Record O=c1c(O)c(-c2ccc(O)c(O)c2)oc2cc(O)cc(O)c12 [Quercetin (Sophoretin)] — which class?
lo

Record `CCN1CCN(Cc2ccc(-c3cc4c(N[C@H](C)c5ccccc5)ncnc4[nH]3)cc2)CC1` — which class?
lo

Record C[C@]12CC[C@@H]3c4ccc(O)cc4CC[C@H]3[C@@H]1CCC2=O [Estrone] — which class?
mid

---
Record `CC(C)n1nc(-c2ccc3oc(N)nc3c2)c2c(N)ncnc21` — which class?
hi

Record C[N+](C)([O-])CCNc1ccc(NCC[N+](C)(C)[O-])c2c1C(=O)c1c(O)ccc(O)c1C2=O [Banoxantrone dihydrochloride] — which class?
lo

Record `Oc1cccc(-c2nc(N3CCOCC3)c3oc4ncccc4c3n2)c1` — which class?
hi

Record `CC(C)[C@H](C(=O)Nc1ccc(C(=O)NO)cc1)c1ccccc1` — which class?
hi

Record `CC(C)OC(=O)C1=CN(C(=O)c2ccc(F)c(F)c2)CC(C)(C)c2c1[nH]c1ccccc21` — which class?
lo

Record `C=CC(=O)N1CCC[C@@H](n2nc(-c3ccc(Oc4ccccc4)cc3)c3c(N)ncnc32)C1` — which class?
hi

Record O=C1CN2Cc3c(ccc(Cl)c3Cl)N=C2N1 [Anagrelide] — which class?
mid

Record `C=CC(=O)Nc1cccc(Oc2nc(Nc3ccc(N4CCN(C)CC4)cc3OC)ncc2Cl)c1` — which class?
mid

Record CNC(=O)c1cc(Oc2ccc(NC(=O)Nc3ccc(Cl)c(C(F)(F)F)c3)c(F)c2)ccn1 [Regorafenib (BAY 73-4506)] — which class?
mid

Record `CC(=O)Nc1cccc(-n2c(=O)n(C3CC3)c(=O)c3c(Nc4ccc(I)cc4F)n(C)c(=O)c(C)c32)c1` — which class?
hi

Record `CNC(=O)c1ccc(C)c(-n2c(C)cc(OCc3ccc(F)cc3F)c(Br)c2=O)c1` — which class?
mid
